Target: T1, Recombinant human sgM-CSF (human, UniProt P09603 33-255)
T1 sequence: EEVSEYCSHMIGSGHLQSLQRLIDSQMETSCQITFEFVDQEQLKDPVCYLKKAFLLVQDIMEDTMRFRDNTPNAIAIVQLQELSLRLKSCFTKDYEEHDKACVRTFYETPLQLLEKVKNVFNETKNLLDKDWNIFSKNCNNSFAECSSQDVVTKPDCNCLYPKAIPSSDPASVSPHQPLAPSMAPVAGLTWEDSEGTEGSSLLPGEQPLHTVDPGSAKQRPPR
Assay: cell-based or functional assay
Experimental Readout: IC50, inhibition of M-NFS-60 proliferation induced by recombinant human M-CSF (9.5 pM)
Answers are plain numbers, in pM.

Below: 2 binders and their reported IC50, inhibition of M-NFS-60 proliferation induced by recombinant human M-CSF (9.5 pM).
Satine, IgG1_D265A (antibody, V domains shown, tested as IgG1 with D265A in the Fc (EU index)) VH: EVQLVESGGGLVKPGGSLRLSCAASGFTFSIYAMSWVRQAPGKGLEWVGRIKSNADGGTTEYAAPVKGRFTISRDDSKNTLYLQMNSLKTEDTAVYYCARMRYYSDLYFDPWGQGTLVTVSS VL: SYELTQPPSVSVSPGQTASITCSGDKLGQKYVSWYQQKPGQSPVLVISQDRKRPSGIPERFSGSNSGNTATLTISGTQAEDEADYYCQTWTHLQWVFGGGTKLTVLG : 5.3
Maelle, IgG1_D265A (antibody, V domains shown, tested as IgG1 with D265A in the Fc (EU index)) VH: QVQLQQSGPGLVKPSQTLSLTCAISGESVSTSSAAWNWIRQSPSRGLEWLGRTYYRSKWKKEYAQSVKSRITINPDTSKNQFSLQLNSVTPEDTAVYYCARDRYYYSAFDYWGQGTLVTVSS VL: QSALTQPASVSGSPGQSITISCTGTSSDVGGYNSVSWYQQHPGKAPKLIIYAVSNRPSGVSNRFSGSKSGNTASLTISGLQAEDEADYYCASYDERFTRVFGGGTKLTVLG : 2.7

Let us examine a further case.
Lookup: Data request, read-out IC50, inhibition of M-NFS-60 proliferation induced by recombinant human M-CSF (9.5 pM), for Celine, IgG1_D265A (antibody, V domains shown, tested as IgG1 with D265A in the Fc (EU index)) VH: QVQLQQSGPGLVKPSQTLSLTCAISGDSVSTSSAAWNWIRQSPSRGLEWLGRTYYRSKWKHEYAVSVKSRITINPDTSKNQFSLQLNSVTPEDTAVYYCARDRYYYSAFDYWGQGTLVTVSS VL: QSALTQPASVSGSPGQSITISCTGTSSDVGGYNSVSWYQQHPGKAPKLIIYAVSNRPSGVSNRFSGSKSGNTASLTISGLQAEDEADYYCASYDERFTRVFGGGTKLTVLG
Found: 2.7
